target: Sigma non-opioid intracellular receptor 1 (Cavia porcellus, UniProt Q60492); experiment: Displacement of [3H]pentazocine from Sigma1 receptor in guinea pig brain membrane
Sequence (Q60492 whole entry): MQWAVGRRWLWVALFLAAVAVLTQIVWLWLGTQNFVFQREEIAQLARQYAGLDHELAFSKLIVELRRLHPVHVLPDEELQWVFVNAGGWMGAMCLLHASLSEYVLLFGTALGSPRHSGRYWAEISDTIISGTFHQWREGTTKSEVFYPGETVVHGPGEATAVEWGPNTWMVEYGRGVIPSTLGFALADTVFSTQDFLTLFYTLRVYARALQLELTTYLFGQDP
pKi: −log10 of the molar value.
Label Met for high-side pKi (at or above 7) and Not met for low-side pKi (below it).

Check if pKi >= 7 (inclusive). Item: COc1ccc2c(CCCN3CCN(C4CCCCC4)CC3)cccc2c1
Met

Check if pKi >= 7 (inclusive). Item: CC1(C)CCCN(CCCc2cccc3ccc(O)cc23)C1
Not met

Check if pKi >= 7 (inclusive). Item: COc1ccc2cccc(CCCN3CCN(C4CCCCC4)CC3)c2c1
Met

Check if pKi >= 7 (inclusive). Item: Oc1ccc2cccc(CCCN3CCN(C4CCCCC4)CC3)c2c1
Met

Check if pKi >= 7 (inclusive). Item: CC1(C)CCCN(CCCCn2c3ccccc3c3ccccc32)C1
Not met

Check if pKi >= 7 (inclusive). Item: CC1(C)CCCN(CCCc2cccc3cc(O)ccc23)C1
Not met

Check if pKi >= 7 (inclusive). Item: Oc1ccc2c(CCCN3CCN(C4CCCCC4)CC3)cccc2c1
Met

Check if pKi >= 7 (inclusive). Item: COc1cccc2c(CCCN3CCCC(C)(C)C3)cccc12
Met

Check if pKi >= 7 (inclusive). Item: CC1(C)CCCN(CCCn2c3ccccc3c3ccccc32)C1
Not met

Check if pKi >= 7 (inclusive). Item: c1ccc2c(c1)c1ccccc1n2CCCN1CCN(C2CCCCC2)CC1
Not met
